These data points were gathered from ChEMBL document CHEMBL1125408.

# Lookup of reported pIC50 keyed by entry
- tested-on: Muscarinic acetylcholine receptor M2 (Mus musculus)
- Sequence (Q9ERZ4 whole entry): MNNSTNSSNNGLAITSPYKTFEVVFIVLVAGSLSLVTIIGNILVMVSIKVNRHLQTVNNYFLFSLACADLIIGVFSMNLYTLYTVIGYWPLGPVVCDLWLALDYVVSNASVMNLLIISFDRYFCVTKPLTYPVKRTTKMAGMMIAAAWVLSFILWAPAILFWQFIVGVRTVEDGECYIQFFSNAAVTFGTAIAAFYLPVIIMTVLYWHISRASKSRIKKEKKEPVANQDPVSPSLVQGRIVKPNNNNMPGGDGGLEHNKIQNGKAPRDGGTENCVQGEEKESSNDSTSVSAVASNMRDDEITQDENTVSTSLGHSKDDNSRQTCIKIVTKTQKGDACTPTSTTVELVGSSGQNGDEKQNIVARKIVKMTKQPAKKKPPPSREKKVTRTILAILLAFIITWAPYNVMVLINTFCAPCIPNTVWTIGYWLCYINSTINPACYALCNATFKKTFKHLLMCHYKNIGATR
- assay-method-text: biochemical
- Description: Compound was evaluated for the competitive inhibition of [3H]methylscopolamine binding to Muscarinic acetylcholine receptor M2 of mouse cerebral cortex
pIC50: −log10 of the molar value.
value-kind: pIC50

CN(C)Cc1ccc(CSCCCCCCSCc2ccc(CN(C)C)o2)o1 | 6.24
CN(C)Cc1ccc(CSCCCCSCc2ccc(CN(C)C)o2)o1 | 5.66
CN(C)Cc1ccc(CSCCCCCSCc2ccc(CN(C)C)o2)o1 | 6.28
CN(C)Cc1ccc(CSCc2ccc(CSCc3ccc(CN(C)C)o3)cc2)o1 | 6.26
CN(C)Cc1ccc(CSCCNC(=NC#N)NCCSCc2ccc(CN(C)C)o2)o1 | 6.33
CN(C)Cc1ccc(CSCCCSCc2ccc(CN(C)C)o2)o1 | 5.82
CN(C)Cc1ccc(CSCc2ccc(-c3ccc(CSCc4ccc(CN(C)C)o4)cc3)cc2)o1 | 5.80
CN(C)Cc1ccc(CSCCSCc2ccc(CN(C)C)o2)o1 | 5.85

---

- tested-on: UniProt:P06276
- Sequence (P06276 whole entry): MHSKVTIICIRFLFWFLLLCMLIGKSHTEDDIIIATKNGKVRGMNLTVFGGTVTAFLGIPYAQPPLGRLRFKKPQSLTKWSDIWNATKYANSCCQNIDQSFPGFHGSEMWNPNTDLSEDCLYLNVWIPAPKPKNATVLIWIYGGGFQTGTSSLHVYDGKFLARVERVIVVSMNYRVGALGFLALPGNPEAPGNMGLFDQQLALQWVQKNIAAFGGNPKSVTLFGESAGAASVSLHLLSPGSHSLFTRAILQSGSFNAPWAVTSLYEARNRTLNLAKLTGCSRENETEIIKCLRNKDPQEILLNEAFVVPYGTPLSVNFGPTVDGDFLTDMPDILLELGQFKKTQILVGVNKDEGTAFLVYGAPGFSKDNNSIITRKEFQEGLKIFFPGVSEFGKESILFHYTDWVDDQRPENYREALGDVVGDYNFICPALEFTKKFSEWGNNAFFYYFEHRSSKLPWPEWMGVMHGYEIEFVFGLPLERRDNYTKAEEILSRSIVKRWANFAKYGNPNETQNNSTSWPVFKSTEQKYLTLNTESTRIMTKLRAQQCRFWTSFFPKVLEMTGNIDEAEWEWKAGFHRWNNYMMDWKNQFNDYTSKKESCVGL
value-kind: IC50 (nM)

CN(C)Cc1ccc(CSCCCCCCCSCc2ccc(CN(C)C)o2)o1 | 1900
CN(C)Cc1ccc(CSCCCCCCCCSCc2ccc(CN(C)C)o2)o1 | 1900
CN(C)Cc1ccc(CSCCN/C=C(/NCCSCc2ccc(CN(C)C)o2)[N+](=O)[O-])o1 | 1300
CN(C)Cc1ccc(CSCCCCCCCCCSCc2ccc(CN(C)C)o2)o1 | 1000
CN(C)Cc1ccc(CSCCNc2cc(NCCSCc3ccc(CN(C)C)o3)c([N+](=O)[O-])cc2[N+](=O)[O-])o1 | 25

---

- tested-on: Muscarinic acetylcholine receptor M1 (Mus musculus, UniProt P12657)
- Sequence (P12657 whole entry): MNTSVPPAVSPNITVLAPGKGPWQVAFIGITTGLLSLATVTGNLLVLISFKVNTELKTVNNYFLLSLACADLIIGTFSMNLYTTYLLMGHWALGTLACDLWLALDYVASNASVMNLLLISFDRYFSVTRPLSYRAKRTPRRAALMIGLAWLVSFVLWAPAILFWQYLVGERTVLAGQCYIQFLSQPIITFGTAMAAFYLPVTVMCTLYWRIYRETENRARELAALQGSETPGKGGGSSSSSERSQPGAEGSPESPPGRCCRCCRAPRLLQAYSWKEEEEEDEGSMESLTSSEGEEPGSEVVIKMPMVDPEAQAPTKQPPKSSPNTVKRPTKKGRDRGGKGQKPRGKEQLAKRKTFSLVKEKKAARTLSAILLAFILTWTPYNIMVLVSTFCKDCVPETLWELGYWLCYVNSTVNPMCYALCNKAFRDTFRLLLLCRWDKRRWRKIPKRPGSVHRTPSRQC
- assay-method-text: biochemical
- Description: Compound was evaluated for the competitive inhibition of [3H]pirenzepine binding to Muscarinic acetylcholine receptor M1 of mouse cerebral cortex
value-kind: IC50 (nM)

CN(C)Cc1ccc(CSCCSCc2ccc(CN(C)C)o2)o1 | 1100
CN(C)Cc1ccc(CSCc2ccc(-c3ccc(CSCc4ccc(CN(C)C)o4)cc3)cc2)o1 | 680
CN(C)Cc1ccc(CSCCNC(=NC#N)NCCSCc2ccc(CN(C)C)o2)o1 | 660
CN(C)Cc1ccc(CSCCCCCCSCc2ccc(CN(C)C)o2)o1 | 540
CN(C)Cc1ccc(CSCCCCSCc2ccc(CN(C)C)o2)o1 | 630
CN(C)Cc1ccc(CSCCCSCc2ccc(CN(C)C)o2)o1 | 1100
CN(C)Cc1ccc(CSCc2ccc(CSCc3ccc(CN(C)C)o3)cc2)o1 | 540
CN(C)Cc1ccc(CSCCCCCSCc2ccc(CN(C)C)o2)o1 | 810

---

- Species: Mus musculus
value-kind: Ki (nM)

CN(C)Cc1ccc(CSCCCCSCc2ccc(CN(C)C)o2)o1 | 1200

---

- tested-on: Muscarinic acetylcholine receptor M2 (Mus musculus) (UniProt Q9ERZ4)
- assay-method-text: Selectivity was defined as the ratio between M2-IC50/M1-IC50
# Lookup of reported Ratio keyed by entry
value-kind: Ratio

CN(C)Cc1ccc(CSCCCCCCCCSCc2ccc(CN(C)C)o2)o1 | 1.8
CN(C)Cc1ccc(CSCCCCCCCCCSCc2ccc(CN(C)C)o2)o1 | 0.71
CN(C)Cc1ccc(CSCCCCCCCSCc2ccc(CN(C)C)o2)o1 | 1.7
CN(C)Cc1ccc(CSCCN/C=C(/NCCSCc2ccc(CN(C)C)o2)[N+](=O)[O-])o1 | 0.55

---

- tested-on: Acetylcholinesterase (Homo sapiens)
- Sequence (P22303 whole entry): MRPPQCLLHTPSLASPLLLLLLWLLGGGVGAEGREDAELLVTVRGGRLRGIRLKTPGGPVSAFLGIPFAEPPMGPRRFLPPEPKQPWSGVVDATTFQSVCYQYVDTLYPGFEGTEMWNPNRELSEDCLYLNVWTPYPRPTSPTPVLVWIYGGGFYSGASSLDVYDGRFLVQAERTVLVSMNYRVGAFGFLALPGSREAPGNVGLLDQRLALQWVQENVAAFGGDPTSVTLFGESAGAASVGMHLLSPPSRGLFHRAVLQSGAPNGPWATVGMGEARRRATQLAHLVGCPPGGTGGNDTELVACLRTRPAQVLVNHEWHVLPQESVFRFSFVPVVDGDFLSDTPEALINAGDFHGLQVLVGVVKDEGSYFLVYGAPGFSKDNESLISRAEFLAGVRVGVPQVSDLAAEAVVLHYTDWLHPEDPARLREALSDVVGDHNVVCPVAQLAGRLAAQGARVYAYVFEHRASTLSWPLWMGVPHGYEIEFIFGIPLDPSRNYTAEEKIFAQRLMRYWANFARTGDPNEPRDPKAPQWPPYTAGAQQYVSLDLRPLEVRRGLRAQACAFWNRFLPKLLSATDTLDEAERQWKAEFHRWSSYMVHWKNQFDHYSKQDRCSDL
# Lookup of reported IC50 keyed by entry
value-kind: IC50

CN(C)Cc1ccc(CSCCCCCCCCCCSCc2ccc(CN(C)C)o2)o1 | 1300 nM
CN(C)Cc1ccc(CSCCN/C=C(/NCCSCc2ccc(CN(C)C)o2)[N+](=O)[O-])o1 | 74 nM
CN(C)Cc1ccc(CSCCNc2cc(NCCSCc3ccc(CN(C)C)o3)c([N+](=O)[O-])cc2[N+](=O)[O-])o1 | 28 nM
CN(C)Cc1ccc(CSCCCCCCCCSCc2ccc(CN(C)C)o2)o1 | 470 nM
CN(C)Cc1ccc(CSCCCCCCCCCSCc2ccc(CN(C)C)o2)o1 | 460 nM
CN(C)Cc1ccc(CSCCCCCCCSCc2ccc(CN(C)C)o2)o1 | 610 nM
